System: U2OS
assay_comment: Multiplex assay against U2OS
Format: toxicity, cell-based
condition_summary: human, 12 h, 10 µM, compound concentration 10 uM, replicate 1
I'd be grateful if you could share measured Population Pyknosed Nuclei (%) for these entries.
The reply should be a number in %, with the unit left off.

(Q) Please give the measured Population Pyknosed Nuclei (%) for this compound: O=C(Nc1ccc(-n2nc(-c3cccnc3)cc2C(F)(F)F)cn1)c1ccc(-c2ccccc2)c(F)c1 [BI 2049]
(A) 17

(Q) Note, next up: CCc1cccc(CC)c1NC(=O)c1nn(C)c2c1CCc1cnc(Nc3ccc(C(=O)NC4CCN(C)CC4)cc3OC(F)(F)F)nc1-2
(A) 26

(Q) Note, next up: COc1cc(N2CCN(C)CC2)ccc1Nc1ncc2c(n1)N(C)c1ccccc1C(=O)N2C
(A) 21

(Q) Note, next up: O=C(Nc1ccc(Cl)cc1)Nc1cccc(-c2cccc(N3CCCC3)n2)c1
(A) 24

(Q) Note, next up: Cc1cc(C)c(S(=O)(=O)N(Cc2ccc(-c3cccc(S(C)(=O)=O)c3)cc2)Cc2ccc(C(F)(F)F)o2)c(C)c1
(A) 10

(Q) Note, next up: CCc1cccc(CC)c1NC(=O)c1nn(C)c2c1CCc1cnc(Nc3ccc(N4CCN(C)CC4)cc3OC)nc1-2
(A) 14

(Q) Note, next up: CN1CCC(=C2c3ccccc3CC(=O)c3sccc32)CC1.O=C(O)/C=C/C(=O)O [KETOTIFEN FUMARATE]
(A) 21

(Q) Note, next up: CNC(=O)c1ccc(Nc2nc(OC3CCCC3)c3c(-c4ccc5nc(C)oc5c4)c[nH]c3n2)c(OC)c1
(A) 11

----------
I'd be grateful if you could share measured Population Healthy Nuclei (%) for these entries.
Test system: U2OS
assay_comment: Multiplex assay against U2OS
Type: toxicity, cell-based
condition_summary: human, 48 h, 10 µM, compound concentration 10 uM, replicate 1
The reply should be a number in %, with the unit left off.

(Q) Please give the measured Population Healthy Nuclei (%) for this compound: COc1cc(N2CCN(C)CC2)ccc1Nc1ncc2c(n1)N(C)c1ccccc1C(=O)N2C
(A) 42

(Q) Note, next up: Cc1ccc(C(=O)Nc2cccc(C(F)(F)F)c2)cc1Nc1nc(-c2cccnc2)nc2c1cnn2C
(A) 10

(Q) Note, next up: CN[C@@H]1C[C@H]2O[C@@](C)([C@@H]1OC)n1c3ccccc3c3c4c(c5c6ccccc6n2c5c31)C(=O)NC4 [STAUROSPORINE]
(A) 0

(Q) Note, next up: S=C(NCCCc1c[nH]cn1)NCCCN(Cc1ccc(Cl)c(Cl)c1)c1ccc(Br)cn1
(A) 2

(Q) Note, next up: CNc1cc(Oc2cc(C(=O)Nc3cc(N4CCN(C)CC4)cc(C(F)(F)F)c3)ccc2C)ncn1
(A) 2

(Q) Note, next up: Cc1cn(-c2cc(NC(=O)c3ccc(C)c(Nc4nccc(-c5cccnc5)n4)c3)cc(C(F)(F)F)c2)cn1 [NILOTINIB]
(A) 10

(Q) Note, next up: Cc1cc(C)c(S(=O)(=O)N(Cc2ccc(-c3cccc(S(C)(=O)=O)c3)cc2)Cc2ccc(C(F)(F)F)o2)c(C)c1
(A) 72

(Q) Note, next up: O=C1N/C(=N/c2ccccc2F)S/C1=C\c1ccc(C(=O)O)cc1
(A) 90
